Test system: S. aureus TOUR
Test: agar-dilution MIC test
Type: cell-based
Conditions: S. aureus TOUR (10^6 CFU/ml)
PROPERTY: MIC (µg/mL)
// note: answer is a bare numeric in µg/mL

* CC(=O)N[C@H]1[C@H](OC2c3ccc(c(Cl)c3)Oc3cc4cc(c3O)Oc3ccc(cc3Cl)CC3NC(=O)C(N)c5ccc(O)c(c5)Oc5cc(O)cc(c5)C(NC3=O)C(=O)NC4C(=O)NC3C(=O)NC2C(=O)NC(C(=O)OCc2ccccc2)c2cc(O)cc(O)c2-c2cc3ccc2O)O[C@H](CO)[C@@H](O)[C@@H]1O.O=C(O)C(F)(F)F (some centres unmarked) | 0.125
* CCCCOC(=O)C1NC(=O)C2NC(=O)C(NC(=O)C3NC(=O)C4NC(=O)C(Cc5ccc(c(Cl)c5)Oc5cc3cc(c5O)Oc3ccc(cc3Cl)C2O[C@@H]2O[C@H](CO)[C@@H](O)[C@H](O)[C@H]2NC(C)=O)NC(=O)C(N)c2ccc(O)c(c2)Oc2cc(O)cc4c2)c2ccc(O)c(c2)-c2c(O)cc(O)cc21.Cl (some centres unmarked) | 0.25
* COC(=O)C1NC(=O)C2NC(=O)C(NC(=O)C3NC(=O)C4NC(=O)C(Cc5ccc(c(Cl)c5)Oc5cc3cc(c5O)Oc3ccc(cc3Cl)C2O[C@@H]2O[C@H](CO)[C@@H](O)[C@H](O)[C@H]2NC(C)=O)NC(=O)C(N)c2ccc(O)c(c2)Oc2cc(O)cc4c2)c2ccc(O)c(c2)-c2c(O)cc(O)cc21.Cl (some centres unmarked) | 0.5
* CC(=O)N[C@H]1[C@H](OC2c3ccc(c(Cl)c3)Oc3cc4cc(c3O)Oc3ccc(cc3Cl)CC3NC(=O)C(N)c5ccc(O)c(c5)Oc5cc(O)cc(c5)C(NC3=O)C(=O)NC4C(=O)NC3C(=O)NC2C(=O)NC(C(=O)OCc2ccc(C)cc2)c2cc(O)cc(O)c2-c2cc3ccc2O)O[C@H](CO)[C@@H](O)[C@@H]1O (some centres unmarked) | 0.25
* CC(=O)N[C@H]1[C@H](OC2c3ccc(c(Cl)c3)Oc3cc4cc(c3O)Oc3ccc(cc3Cl)CC3NC(=O)C(N)c5ccc(O)c(c5)Oc5cc(O)cc(c5)C(NC3=O)C(=O)NC4C(=O)NC3C(=O)NC2C(=O)NC(C(=O)OCCCl)c2cc(O)cc(O)c2-c2cc3ccc2O)O[C@H](CO)[C@@H](O)[C@@H]1O.Cl (some centres unmarked) | 0.5
* CCOC(=O)C1NC(=O)C2NC(=O)C(NC(=O)C3NC(=O)C4NC(=O)C(Cc5ccc(c(Cl)c5)Oc5cc3cc(c5O)Oc3ccc(cc3Cl)C2O[C@@H]2O[C@H](CO)[C@@H](O)[C@H](O)[C@H]2NC(C)=O)NC(=O)C(N)c2ccc(O)c(c2)Oc2cc(O)cc4c2)c2ccc(O)c(c2)-c2c(O)cc(O)cc21.Cl (some centres unmarked) | 0.5
* CC(=O)N[C@H]1[C@H](OC2c3ccc(c(Cl)c3)Oc3cc4cc(c3O)Oc3ccc(cc3Cl)CC3NC(=O)C(N)c5ccc(O)c(c5)Oc5cc(O)cc(c5)C(NC3=O)C(=O)NC4C(=O)NC3C(=O)NC2C(=O)NC(C(=O)OCCO)c2cc(O)cc(O)c2-c2cc3ccc2O)O[C@H](CO)[C@@H](O)[C@@H]1O.O=C(O)C(F)(F)F (some centres unmarked) | 0.125

Request: Need MIC, item CC(=O)N[C@H]1[C@H](OC2c3ccc(c(Cl)c3)Oc3cc4cc(c3O)Oc3ccc(cc3Cl)CC3NC(=O)C(N)c5ccc(O)c(c5)Oc5cc(O)cc(c5)C(NC3=O)C(=O)NC4C(=O)NC3C(=O)NC2C(=O)NC(C(=O)OCCCCCl)c2cc(O)cc(O)c2-c2cc3ccc2O)O[C@H](CO)[C@@H](O)[C@@H]1O.Cl (some centres unmarked)
Response: 0.125
